Target: 4'-phosphopantetheinyl transferase ffp (Bacillus subtilis) (UniProt Q9F4F7)
Assay: qHTS Assay for Inhibitors of Bacillus subtilis Sfp phosphopantetheinyl transferase (PPTase);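 also: the enzyme is Sfp with the accession as filed and its product quenches rhodamine fluorescence; 0% = enzyme reaction without inhibitor and -100% = no enzyme wells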
Details: Biochemical Sfp PPTase activity
The whole screen tested about 310,000 compounds, of which about 11,000 (3.5%) were called active. Inconclusive results (about 4%) are left out. The sample as a whole holds a higher share of actives than the screen did.
assay readout: largest response in the series, negative = inhibition (%)
Just the number in %, nothing appended.

Use these answered entries as a reference point.
[
  {
    "compound": "C/C(=N\\NC(=O)C(N)=O)c1ccc2c(c1)OCCO2",
    "meas value": -17.8
  },
  {
    "compound": "Cc1ccc(C(=O)N2CCC(n3nccc3NC(=O)Nc3cccc(F)c3)CC2)cn1",
    "meas value": 4.54
  },
  {
    "compound": "CC(C)[C@@H](NC(=O)OC(C)(C)C)C(=O)NCC1CCC(C(=O)N[C@@H](Cc2ccccc2)C(=O)O)CC1 (some centres undefined)",
    "meas value": 6.54
  },
  {
    "compound": "Cc1ccc2c(c1)N(CC(=O)NCCc1ccc(Cl)cc1)C(=O)c1cccnc1O2",
    "meas value": -4.46
  },
  {
    "compound": "COc1cc(C2C3=C(CCCC3=O)OC3=C2C(=O)CCC3)ccc1OCC(=O)Nc1ccccc1",
    "meas value": -3.15
  },
  {
    "compound": "COc1cc(/C=C2\\SC(=O)NC2=O)ccc1OCc1ccc(Cl)nc1",
    "meas value": -9.24
  },
  {
    "compound": "Cc1cccc(NC(=O)CSCC(=O)Nc2nnc(C3CC3)s2)c1",
    "meas value": -4.58
  },
  {
    "compound": "O=C1Nc2cc(C(=O)N3CCC(N4CCCCC4)CC3)ccc2S/C1=C\\c1ccccc1",
    "meas value": -28.2
  }
]

q: Can you look up the measured largest response in the series, negative = inhibition of `COc1ccc(-c2nc(SCC(=O)N3CCOCC3)n[nH]2)cc1` for me?
a: 18.2

* * *

Target: 4'-phosphopantetheinyl transferase ffp (Bacillus subtilis)
Test: qHTS Assay for Inhibitors of Bacillus subtilis Sfp phosphopantetheinyl transferase (PPTase);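 also: the enzyme is Sfp with the accession as filed and its product quenches rhodamine fluorescence; 0% = enzyme reaction without inhibitor and -100% = no enzyme wells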
Conditions: Biochemical Sfp PPTase activity
Among all 310,000 compounds or so, about 11,000 (3.5%) were called active. Inconclusive results (about 4%) are left out. The sample as a whole holds a higher share of actives than the screen did.
Below, each entry is listed with its recorded largest response in the series, negative = inhibition.
Just the number in %, nothing appended.

Use these answered entries as a reference point.
[
  {
    "molecule": "CN1C2CCC1CC(NC(=O)c1ccc([N+](=O)[O-])cc1)C2 (stereo not given)",
    "meas value": 9.32
  },
  {
    "molecule": "Nc1nc(Nc2ccccc2)nc(NCCO)c1[N+](=O)[O-]",
    "meas value": 13.5
  },
  {
    "molecule": "O=C(Cc1ccc(Br)cc1)NCCN1CCOCC1",
    "meas value": 14.6
  },
  {
    "molecule": "COc1cc(Cl)ccc1OCc1cc(C(=O)N(C)CCc2c(C)n[nH]c2C)no1",
    "meas value": 11.4
  },
  {
    "molecule": "COc1ccc(C2CC(c3ccc([N+](=O)[O-])cc3)=NN2C(C)=O)cc1 (stereo not given)",
    "meas value": 0.697
  }
]

q: Can you look up the measured largest response in the series, negative = inhibition of `CN(C)c1nc(Nc2ccc(Cl)c(Cl)c2)nc(N(C)C)n1` for me?
a: 3.3

q: Ok, now `COc1cccc(Cn2cc(/C=N/NC(=O)c3cc(O)cc(O)c3)c3ccccc32)c1`
a: -18.5

q: Ok, now `CCOc1ccccc1N1CCN(C(=S)Nc2ccc(S(N)(=O)=O)cc2)CC1`
a: -3.97

q: Ok, now `NS(=O)(=O)c1ccc(NC(=S)N2CCCC2)cc1`
a: 13.2

q: Ok, now `COc1ccc(-c2cc(=O)oc3cc(OCC(=O)N[C@@H](Cc4c[nH]c5ccccc45)C(=O)O)ccc23)cc1`
a: -17.5

Recorded values, source PubChem BioAssay AID1490.
